tested on: HLA-A*01; assay: MHC binding assay (UV-ligand exchange, β2m ELISA); parameters: species or system human
quantityName: Peptide exchange (peptide exchange yield, MHC class I binding score)

Field: example entries. Status: answers known.
substance: 420 (LTEDKETLQY; listed as Homo sapiens) [compound 420]
reportedValue: “++++” (>75% = ++++)

substance: 428 (NSELSCQLY; listed as Homo sapiens) [compound 428]
reportedValue: “++++” (>75% = ++++)

substance: 425 (NLDIIQQEY; listed as Homo sapiens) [compound 425]
reportedValue: “++++” (>75% = ++++)

substance: 440 (TLDENPGVRY; listed as Homo sapiens) [compound 440]
reportedValue: “+++” (>50 = +++)

In: Need Peptide exchange (peptide exchange yield, MHC class I binding score) of 163 (NSDSSLTLREFY; listed as Homo sapiens) [compound 163] , thanks.
Out: “+++” (>50 = +++)

In: Need Peptide exchange (peptide exchange yield, MHC class I binding score) of 395 (ASEASRLAHY; listed as Homo sapiens) [compound 395] , thanks.
Out: “++++” (>75% = ++++)

In: Need Peptide exchange (peptide exchange yield, MHC class I binding score) of 176 (SRTINVSNLY; listed as Homo sapiens) [compound 176] , thanks.
Out: “+++” (>50 = +++)

In: Need Peptide exchange (peptide exchange yield, MHC class I binding score) of 184 (TSAHPEDSSFY; listed as Homo sapiens) [compound 184] , thanks.
Out: “+++” (>50 = +++)

In: Need Peptide exchange (peptide exchange yield, MHC class I binding score) of 403 (ELDSKVEVLTY; listed as Homo sapiens) [compound 403] , thanks.
Out: “+++” (>50 = +++)

In: Need Peptide exchange (peptide exchange yield, MHC class I binding score) of 402 (DTDSQRLAY; listed as Homo sapiens) [compound 402] , thanks.
Out: “+++” (>50 = +++)

In: Need Peptide exchange (peptide exchange yield, MHC class I binding score) of 451 (YSDSLVQKGY; listed as Homo sapiens) [compound 451] , thanks.
Out: “++++” (>75% = ++++)

In: Need Peptide exchange (peptide exchange yield, MHC class I binding score) of 170 (RSDDTAVYY; listed as Homo sapiens) [compound 170] , thanks.
Out: “++++” (>75% = ++++)

In: Need Peptide exchange (peptide exchange yield, MHC class I binding score) of 148 (GTEFTTILY; listed as Homo sapiens) [compound 148] , thanks.
Out: “++++” (>75% = ++++)

In: Need Peptide exchange (peptide exchange yield, MHC class I binding score) of 424 (NLDEEKQLLY; listed as Homo sapiens) [compound 424] , thanks.
Out: “+++” (>50 = +++)

In: Need Peptide exchange (peptide exchange yield, MHC class I binding score) of 200 (YSDEDVTKY; listed as Homo sapiens) [compound 200] , thanks.
Out: “++++” (>75% = ++++)

In: Need Peptide exchange (peptide exchange yield, MHC class I binding score) of 201 (YVGKEHMFY; listed as Homo sapiens) [compound 201] , thanks.
Out: “++++” (>75% = ++++)

In: Need Peptide exchange (peptide exchange yield, MHC class I binding score) of 154 (LLDISQKNLY; listed as Homo sapiens) [compound 154] , thanks.
Out: “+++” (>50 = +++)

In: Need Peptide exchange (peptide exchange yield, MHC class I binding score) of 158 (LSDLLKQGY; listed as Homo sapiens) [compound 158] , thanks.
Out: “++++” (>75% = ++++)
